# system_under_test: CDK2/cyclin E (Homo sapiens, UniProt P24941)
# protocol_text: CDK2/cyclin E Flashplate test in 96-well format
# Type: biochemical
# reported_conditions: read-out: CDK2 IC50
Structures can show the parent of a compound that is named as a salt.
Kindly supply the reported IC50 values for the records listed here.
One number for each entry, in nM.

compound: NCC(=O)Nc1nc2ccc(OS(=O)(=O)c3cccs3)cc2s1 [Example 33b, trifluoroacetic acid]
system_under_test: CDK2/cyclin E (Homo sapiens, UniProt P24941)
IC50 / nM: 6340

Give me IC50 for each of these compounds, listed below.
1. CC(C)N(CCNc1ccc(S(=O)(=O)Oc2ccc3nc(NC(=O)C4CC4)sc3c2)cc1)C(C)C [Example 12]
2. NCCCCCCCC(=O)Nc1nc2ccc(OS(=O)(=O)c3cccs3)cc2s1 [Example 33f, trifluoroacetic acid]
3. CC(C)N(CCNc1ccc(S(=O)(=O)Oc2ccc3nc(NC(=O)CC4CCNCC4)sc3c2)cc1)C(C)C [Example 42]
4. O=C(CCC1CCNCC1)Nc1nc2ccc(OS(=O)(=O)c3ccc(NCCCn4ccnc4)cc3)cc2s1 [Example 25a, hydrochloride]
5. CCC(=O)Nc1nc2ccc(OS(=O)(=O)c3ccc(NCCNC(C)C)cc3)cc2s1 [Example 71]

Result:
1. 25
2. 1840
3. 1140
4. 365
5. 175

Request: Kindly state the measured IC50 obtained for CC(C)(O)CNc1ccc(S(=O)(=O)Oc2ccc3nc(NC(=O)C4CCNCC4)sc3c2)cc1 [Example 5] with CDK2/cyclin E (Homo sapiens, UniProt P24941).
Result: 995

====

Hi there, I'd appreciate the recorded EC50 for every entry that follows.
# System: HeLa
# protocol_text: HeLa proliferation
# Format: cell-based
# reported_conditions: Homo sapiens, read-out: HeLa proliferation EC50 (nM) DG
Where a name gives a salt, the structure may show the parent alone.

Reference set, count: 5
molecule: CC(C)CNc1ccc(S(=O)(=O)Oc2ccc3nc(NC(=O)CC4CCNCC4)sc3c2)cc1 [Example 28, hydrochloride]
EC50: 1330 nM

molecule: CC(=O)Nc1nc2ccc(OS(=O)(=O)c3ccc(NCCN(C(C)C)C(C)C)cc3)cc2s1
EC50: 36 nM

molecule: CC(C)NCCNc1ccc(S(=O)(=O)Oc2ccc3nc(NC(=O)CCC4CCNCC4)sc3c2)cc1 [Example 24, hydrochloride]
EC50: > 12500 nM

molecule: CC(C)NCCNc1ccc(S(=O)(=O)Oc2ccc3nc(NC(=O)C4CCCC4)sc3c2)cc1
EC50: 1130 nM

molecule: CCC(=O)Nc1nc2ccc(OS(=O)(=O)c3ccc(NCCNC(C)C)cc3)cc2s1
EC50: 2170 nM

Can you give me EC50 for all of these, one by one?
1. O=C(Nc1nc2ccc(OS(=O)(=O)c3ccc(NCCCn4ccnc4)cc3)cc2s1)C1CC1
2. CCC(=O)Nc1nc2ccc(OS(=O)(=O)c3ccc(NCCN(C(C)C)C(C)C)cc3)cc2s1 [Example 57, hydrochloride]
3. CC(C)N(CCNc1ccc(S(=O)(=O)Oc2ccc3nc(NC(=O)CCCCCCN)sc3c2)cc1)C(C)C [Example 52, hydrochloride]
4. CC(=O)Nc1nc2ccc(OS(=O)(=O)c3ccc(NCCNC(C)C)cc3)cc2s1
5. CC(C)NCCNc1ccc(S(=O)(=O)Oc2ccc3nc(NC(=O)C4CC4)sc3c2)cc1 [Example 53, hydrochloride]
6. CC(C)NCCNc1ccc(S(=O)(=O)Oc2ccc3nc(NC(=O)C4CCC4)sc3c2)cc1
7. CC(C)C(=O)Nc1nc2ccc(OS(=O)(=O)c3ccc(NCCN(C(C)C)C(C)C)cc3)cc2s1 [Example 55, hydrochloride]

Result:
611 nM
79 nM
2950 nM
122 nM
16 nM
179 nM
43 nM

Hi, could you look up EC50 for each item in my list?
1. CC(C)(O)CNc1ccc(S(=O)(=O)Oc2ccc3nc(NC(=O)C4CC4)sc3c2)cc1
2. CC(C)(O)CNc1ccc(S(=O)(=O)Oc2ccc3nc(NC(=O)CCc4cccnc4)sc3c2)cc1
3. CCCC(=O)Nc1nc2ccc(OS(=O)(=O)c3ccc(NCC(C)(C)O)cc3)cc2s1 [Example 80, hydrochloride]

Result:
80 nM
8370 nM
408 nM
